Catalogue of molecules with associated T/C
- Test system: L1210 leukemia ip in BDF1 mice, survival T/C
- methodNotes: NCI In Vivo Anticancer Drug Screen. Data for tumor model L1210 Leukemia (intraperitoneal) in B6D2F1 (BDF1) mice
- measurementConditions: endpoint: mean survival time; dose: 100.0 mg/kg/injection; schedule: Q01DX009 (ip); vehicle: saline with Tween-80; higher = longer survival
- Procedure: The antitumor activity of compounds was measured in mice bearing transplantable tumors. Survival or tumor size were measured and the results are expressed as the measurement made in the treated group (T) divided by the measurement made in the vehicle treated control group (C). The tumor model used in this assay is L1210 Leukemia (intraperitoneal) in B6D2F1 (BDF1) mice
Toxic doses and inconclusive results are not listed.

# count of solved cases: 3
molecule	T/C
CC1CCC(=C(c2ccccc2)c2ccccc2)C(C)N1C (centres undefined)	90 % of control
O=c1oc(-c2cccc([N+](=O)[O-])c2)nc2ccccc12	94 % of control
O=C(N/N=C\c1ccc([N+](=O)[O-])cc1)c1ccccc1	97 % of control

T/C of Cc1ccccc1N1OS(=O)(=O)CC1(C#N)c1ccccc1 (centres undefined) , assay on L1210 leukemia ip in BDF1 mice, survival T/C, is 98 % of control

T/C of CCOC(=O)/C(Cc1cnc2ccccc2n1)=N\O , assay on L1210 leukemia ip in BDF1 mice, survival T/C, is 94 % of control

T/C of COC(=O)C(CSCSC)NC(=O)NC1CCCCC1 (centres undefined) , assay on L1210 leukemia ip in BDF1 mice, survival T/C, is 91 % of control

T/C of O=C(Nc1ccccc1)Nc1ccccc1 , assay on L1210 leukemia ip in BDF1 mice, survival T/C, is 91 % of control

T/C of O=C1NC(=O)C(O)(C2(O)C(=O)NC(=O)NC2=O)C(=O)N1 , assay on L1210 leukemia ip in BDF1 mice, survival T/C, is 106 % of control

T/C of CC1C=CC2CC(O)C12 (centres undefined) , assay on L1210 leukemia ip in BDF1 mice, survival T/C, is 111 % of control

T/C of CN1CCCC1CCNc1nc(C(Cl)(Cl)Cl)nc2ccc(Cl)cc12 (centres undefined) , assay on L1210 leukemia ip in BDF1 mice, survival T/C, is 106 % of control
